Test system: Plasmodium falciparum
Assay: Plasmodium falciparum sporozoite viability assay; further: in the data most compounds retested in dose-response had high values
Type: functional, organism-based
About 290 (0.85%) of roughly 34,000 compounds showed an effect of 50% or more. Shown is part of a subset that was picked to be rich in strong results.
readoutLabel: Percent Effect (%)

# compound, systemUnderTest, quantitativeResult
data = [
    ("CN(CCc1ccccn1)C(=O)c1cnn(-c2ccccc2F)c1N", "Plasmodium falciparum", -5.321),
    ("CC(C)c1cc(C(=O)NCCn2nc3ccccn3c2=O)n[nH]1", "Plasmodium falciparum", -7.561),
    ("c1cncc(-c2noc(CN3CCc4cncnc4C3)n2)c1", "Plasmodium falciparum", 1.959),
    ("CSCc1cc(F)ccc1CNC(=O)N1CCOCC1", "Plasmodium falciparum", 1.579),
    ("Cc1ccc(OCCN(C)C(=O)CCCC(N)=O)c(C)c1", "Plasmodium falciparum", -6.308),
    ("O=C(O)c1cc(S(=O)(=O)Nc2ccc(F)c(Cl)c2)cc2c1OCCO2", "Plasmodium falciparum", 12.45),
    ("CCN1CCCC1CNCc1cc2ccccc2[nH]c1=O (centres undefined)", "Plasmodium falciparum", 24.74),
    ("Cn1cncc1CN1CCC(O)(Cn2nc(-c3cccs3)oc2=O)CC1.O=C(O)CC(O)(CC(=O)O)C(=O)O", "Plasmodium falciparum", -17.63),
    ("O=C(c1ccc[nH]1)N1C[C@H]2CN(Cc3cccc(F)c3)C(=O)[C@H]2C1", "Plasmodium falciparum", 12.11),
    ("Cc1nc(N2CCN(C(=O)c3ccccc3)CC2)c2cnn(C)c2n1", "Plasmodium falciparum", -8.371),
    ("CCOc1ncccc1NC(=O)Nc1c(C)nn(C(C)C)c1C", "Plasmodium falciparum", 2.999),
    ("O=S(=O)(C1CC1)N1CCC2(COCc3cnc(-c4cccnc4)nc32)C1 (centres undefined)", "Plasmodium falciparum", 9.968),
    ("CCC(=O)N1CCC(c2ncc(C(=O)Nc3ccccc3)c(C)n2)C1 (centres undefined)", "Plasmodium falciparum", 8.085),
    ("Cc1ccc(Nc2nccc(C3CN(C(C)C)C3)n2)nc1", "Plasmodium falciparum", 10.21),
    ("Cc1cc(C(=O)N2CC[C@H]3C[C@H](c4ccncn4)O[C@@H]3C2)c(C)[nH]1", "Plasmodium falciparum", -3.163),
    ("CCc1[nH]ncc1C(=O)N1CCCC(n2cncn2)C1 (centres undefined)", "Plasmodium falciparum", -4.375),
    ("CCc1n[nH]c(C2CN(C(=O)c3ccnc(C)n3)CCO2)n1 (centres undefined)", "Plasmodium falciparum", -2.148),
    ("COCCC(=O)N1CCCN(Cc2nccn2C(C)C)CC1", "Plasmodium falciparum", 9.219),
    ("Cc1nc(CN2CC(CCCc3ccccn3)(C(=O)N(C)C)C2)co1", "Plasmodium falciparum", -0.6757),
    ("Cc1cc(C)n(CC2CCCN2C(=O)CCc2ccncc2)n1 (centres undefined)", "Plasmodium falciparum", 1.423),
    ("COCCC(=O)N1CC[C@@H](N(C)C)[C@@H]1Cc1ccccc1", "Plasmodium falciparum", -9.112),
    ("Cc1nn2c(N3CCC(O)CC3)cc(-c3ccccc3)nc2c1C", "Plasmodium falciparum", -9.448),
    ("O=C(CC1CC1)N1CCCn2nnc(CNc3ncccn3)c2C1", "Plasmodium falciparum", 2.773),
    ("N#Cc1c(SCCN2CCCCC2)sc2c(O)cc(O)nc12", "Plasmodium falciparum", 19.81),
    ("CCN(CC)CCCNc1nc(C)nc2c1CCN(C)C2.O=C(O)CC(O)(CC(=O)O)C(=O)O", "Plasmodium falciparum", 7.039),
    ("O=C1COc2cc(OC[C@@H]3CCCN4CCCC[C@H]34)ccc21", "Plasmodium falciparum", -3.094),
    ("C[C@@H]1CN(Cc2ccccn2)C[C@]12CCN(Cc1cccnc1)C2=O.O=C(O)C(F)(F)F.O=C(O)C(F)(F)F.O=C(O)C(F)(F)F", "Plasmodium falciparum", -3.791),
    ("CC(C)NC(=O)C1CN(C(=O)Nc2ccc(F)cc2)CC12CCOCC2 (centres undefined)", "Plasmodium falciparum", -6.778),
    ("O=C(c1ccc(-n2cccn2)nc1)N1CCC(c2ccn[nH]2)C1 (centres undefined)", "Plasmodium falciparum", -0.6869),
    ("Cl.OC1(c2ccc(F)cc2)CCN(Cc2ccccc2N2CCCC2)CC1", "Plasmodium falciparum", 10.2),
    ("COCc1cncc2c1CCN(C(=O)c1ccc(C#N)cc1)C2.O=C(O)C(F)(F)F", "Plasmodium falciparum", 7.706),
    ("Cc1ccc(CCNC(=O)Nc2cc(C(F)(F)F)c[nH]c2=O)o1", "Plasmodium falciparum", -6.166),
    ("O=C(CN1CCCS1(=O)=O)Nc1ccc(OC2CCCC2)cc1", "Plasmodium falciparum", -4.929),
    ("Cl.Clc1ccccc1CN1CCc2nc(C3CCCNC3)ncc2C1 (centres undefined)", "Plasmodium falciparum", 2.109),
    ("Cc1ccccc1OC1CCN(S(=O)(=O)c2c(C)n[nH]c2C)CC1", "Plasmodium falciparum", 0.8951),
    ("O=C(O)c1ccccc1-c1ccc(CN2CCOCC2)cn1", "Plasmodium falciparum", 6.918),
    ("C=Cn1ncc(CN2C[C@@H]3CCCN3C[C@H]2Cc2ccccc2)c1C", "Plasmodium falciparum", -1.399),
    ("Cc1noc(C)c1CC(=O)N[C@@H]1CC[C@@H](Oc2ccccc2)[C@@H]1O", "Plasmodium falciparum", 3.978),
    ("CC(C)C[C@H](N)COc1cccc(F)c1Oc1cccc(Cl)c1", "Plasmodium falciparum", 0.9974),
    ("Cc1ccc(C(C)NC(=O)CNCCn2cccn2)cc1C (centres undefined)", "Plasmodium falciparum", -5.595),
    ("CC(C)c1ncc2c(n1)CN(Cc1nc(-c3ccsc3)no1)CC2", "Plasmodium falciparum", 18.76),
    ("CCN1CC2(CCOCC2)c2cc(NS(=O)(=O)CC)ccc21.O=C(O)C(F)(F)F", "Plasmodium falciparum", 11.65),
    ("CC(=O)Nc1nc(C(=O)N2CCC(Nc3cccnn3)CC2)cs1", "Plasmodium falciparum", -14.59),
    ("COC1COC2(CCN(CC3CCOCC3)CC2)C1.O=C(O)C(F)(F)F (centres undefined)", "Plasmodium falciparum", 2.7),
]
